- testedSystem: human FAP (Homo sapiens, UniProt Q12884)
- Construct: the biotinylated His, Avi tag, human FAP (26-760, FAP-H82Q6); His; Avi tag (biotinylated); purchased AcroBiosystems FAP-H82Q6
- Sequence (Q12884 26-760): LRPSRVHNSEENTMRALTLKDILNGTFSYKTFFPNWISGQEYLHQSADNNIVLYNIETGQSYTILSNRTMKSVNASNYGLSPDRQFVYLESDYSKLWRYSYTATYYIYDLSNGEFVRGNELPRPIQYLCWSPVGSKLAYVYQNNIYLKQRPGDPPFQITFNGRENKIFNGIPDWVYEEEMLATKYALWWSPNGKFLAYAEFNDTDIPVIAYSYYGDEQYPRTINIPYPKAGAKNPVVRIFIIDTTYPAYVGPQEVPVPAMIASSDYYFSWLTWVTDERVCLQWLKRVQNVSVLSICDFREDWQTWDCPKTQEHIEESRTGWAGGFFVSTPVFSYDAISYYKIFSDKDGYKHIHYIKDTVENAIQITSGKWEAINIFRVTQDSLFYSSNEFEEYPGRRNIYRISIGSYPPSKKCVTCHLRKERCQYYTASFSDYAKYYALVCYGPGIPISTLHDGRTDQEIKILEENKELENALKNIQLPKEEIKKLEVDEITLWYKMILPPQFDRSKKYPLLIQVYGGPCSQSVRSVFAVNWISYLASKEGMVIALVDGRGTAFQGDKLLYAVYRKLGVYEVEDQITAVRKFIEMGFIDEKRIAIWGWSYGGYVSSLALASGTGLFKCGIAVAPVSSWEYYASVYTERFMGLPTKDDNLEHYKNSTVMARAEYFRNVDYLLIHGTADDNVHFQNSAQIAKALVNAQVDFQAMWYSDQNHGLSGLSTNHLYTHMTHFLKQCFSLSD
- method: Surface plasmon resonance (SPR) for peptide affinity, human FAP
- Type: binding
- studyConditions: read-out: h. FAP, SPR, KD
Starred links: 1 amine or outer side, 2 acyl side, 3 side chain; linkers in the order of their positions; H or OH if unused. Non-standard residues stand in square brackets, D forms with d. Residues, ends and D or L forms follow the SMILES beside them. Groups on a side chain read outwards from the residue. *: point of attachment. DOTA = O=C(O)CN1CCN(CC(=O)O)CCN(CC(=O)*)CCN(CC(=O)O)CC1; Phe(4-CH2NH2) = NCc1ccc(C[C@H](N)C(=O)O)cc1; Piperazinyl(4-CH2COOH) = O=C(O)CN1CCN(*)CC1; NMeF = CN[C@@H](Cc1ccccc1)C(=O)O; Ahp(2) = CCCCC[C@H](N)C(=O)O; hSer = N[C@@H](CCO)C(=O)O; AEEA = NCCOCCOCC(=O)O; CO = O=C([*:1])[*:2]; Propyl = CCC*
Each entry below carries its recorded Kd.

compound | Kd
CCCCC[C@@H]1NC(=O)[C@H](Cc2ccc(O)cc2)NC(=O)[C@H](Cc2ccccc2)N(C)C(=O)CNC(=O)[C@@H]2CCCN2C(=O)[C@H]2CCCN2C(=O)[C@H](CC(=O)O)NC(=O)[C@H](Cc2ccc(O)cc2)NC(=O)CNC(=O)[C@H](Cc2c[nH]c3ccccc23)NC1=O [Example A51] (cyclo(G[NMeF]Y[Ahp(2)]WGYD[dP]P)) | 0.163 nM
CCCOCC[C@@H]1NC(=O)[C@H](Cc2ccc(CNC(=O)COCCOCCNC(=O)CN3CCN(CC(=O)O)CCN(CC(=O)O)CCN(CC(=O)O)CC3)cc2)NC(=O)[C@H](Cc2ccccc2)N(C)C(=O)CNC(=O)CNC(=O)[C@H]2CCCN2C(=O)[C@H](CC(=O)O)NC(=O)[C@H](CCCCNC(=O)N2CCN(CC(=O)O)CC2)NC(=O)CNC(=O)[C@H](Cc2c[nH]c3ccccc23)NC1=O [Example B2] (cyclo(D[dP]GG[NMeF][Phe(4-CH2NH2)]([AEEA-DOTA])[hSer](Propyl)WGK([CO-Piperazinyl(4-CH2COOH)]))) | < 0.013 nM
CCCCC[C@@H]1NC(=O)[C@H](Cc2ccc(O)cc2)NC(=O)[C@H](Cc2ccccc2)N(C)C(=O)CNC(=O)CNC(=O)[C@H]2CCCN2C(=O)[C@H](CC(=O)O)NC(=O)[C@H](Cc2ccc(OC)cc2)NC(=O)CNC(=O)[C@H](Cc2c[nH]c3ccccc23)NC1=O [Example A13] (cyclo([Ahp(2)]WGY(Me)D[dP]GG[NMeF]Y)) | < 0.005 nM

---

- testedSystem: mouse FAP (Mus musculus)
- Sequence (P97321 26-761): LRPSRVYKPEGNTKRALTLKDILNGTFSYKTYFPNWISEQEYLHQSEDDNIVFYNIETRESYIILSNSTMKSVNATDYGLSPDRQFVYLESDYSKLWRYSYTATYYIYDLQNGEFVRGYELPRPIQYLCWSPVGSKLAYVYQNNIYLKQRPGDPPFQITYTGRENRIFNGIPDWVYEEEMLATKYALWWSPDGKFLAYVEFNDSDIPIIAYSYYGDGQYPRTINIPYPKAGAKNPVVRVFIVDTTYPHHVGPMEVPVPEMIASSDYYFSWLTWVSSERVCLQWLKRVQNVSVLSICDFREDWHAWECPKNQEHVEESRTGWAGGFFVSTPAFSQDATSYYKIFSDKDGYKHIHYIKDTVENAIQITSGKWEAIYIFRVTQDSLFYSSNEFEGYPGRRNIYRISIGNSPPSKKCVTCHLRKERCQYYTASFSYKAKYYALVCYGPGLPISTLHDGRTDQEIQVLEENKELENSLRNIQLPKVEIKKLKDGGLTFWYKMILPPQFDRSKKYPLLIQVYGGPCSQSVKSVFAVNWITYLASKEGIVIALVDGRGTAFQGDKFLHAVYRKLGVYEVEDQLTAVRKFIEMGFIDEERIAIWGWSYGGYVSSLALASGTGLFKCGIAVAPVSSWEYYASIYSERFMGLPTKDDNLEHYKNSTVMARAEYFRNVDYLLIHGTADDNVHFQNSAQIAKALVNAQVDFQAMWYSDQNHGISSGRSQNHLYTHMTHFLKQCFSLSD
Non-standard residues stand in square brackets, D forms with d. Residues, ends and D or L forms follow the SMILES beside them. NMeF = CN[C@@H](Cc1ccccc1)C(=O)O; Ahp(2) = CCCCC[C@H](N)C(=O)O; hSer = N[C@@H](CCO)C(=O)O
Parameter: IC50. Scope: all listed entries.

molecule | u | IC50
CCCCCC[C@@H]1NC(=O)[C@H](Cc2ccc(CNC(=O)COCCOCCNC(=O)CCC(C(=O)O)N3CCN(CC(=O)O)CCN(CC(=O)O)CC3)cc2)NC(=O)[C@H](Cc2ccccc2)N(C)C(=O)CNC(=O)CNC(=O)[C@H]2CCCN2C(=O)[C@H](CC(=O)O)NC(=O)[C@H](CCCCNC(=O)N2CCN(CC(=O)O)CC2)NC(=O)CNC(=O)[C@H](Cc2c[nH]c3ccccc23)NC1=O (stereo partly drawn) | nM | 0.073
CCCCC[C@@H]1NC(=O)[C@H](Cc2ccc(O)cc2)NC(=O)[C@H](Cc2ccccc2)N(C)C(=O)CNC(=O)CNC(=O)[C@H]2CCCN2C(=O)[C@H](CC(=O)O)NC(=O)[C@H](Cc2ccc(OC)cc2)NC(=O)CNC(=O)[C@H](Cc2c[nH]c3ccccc23)NC1=O [Example A13] (cyclo([Ahp(2)]WGY(Me)D[dP]GG[NMeF]Y)) | nM | 0.011
CCCCC[C@@H]1NC(=O)[C@H](Cc2ccc(O)cc2)NC(=O)[C@H](Cc2ccccc2)N(C)C(=O)CNC(=O)[C@H](CCO)NC(=O)[C@H]2CCCN2C(=O)[C@H](CC(=O)O)NC(=O)[C@H](Cc2ccc(O)cc2)NC(=O)CNC(=O)[C@H](Cc2c[nH]c3ccccc23)NC1=O [Example A42] (cyclo([Ahp(2)]WGYD[dP][hSer]G[NMeF]Y)) | nM | 0.36

Ref: patent US20250090699A1
